# EXPERIMENTAL_PROTOCOL: in vivo
# CONDITIONS_USED: mouse, in vivo, po
Counter-ions that a name gives are not always drawn.
Listed next: entries and their corresponding LD50 at 24 h.

Examples with their reported LD50 at 24 h follow.
[
  {
    "MOLECULE": "C1=C(CN2CC3c4ccccc4C4CC3(C2)c2ccccc24)CCC1 (centres unmarked)",
    "ASSAY_VALUE": "> 324 mg/kg"
  },
  {
    "MOLECULE": "c1ccc2c(c1)[C@@H]1C[C@@]3(CN(C4CCC4)C[C@H]23)c2ccccc21 (relative stereo)",
    "ASSAY_VALUE": "> 324 mg/kg"
  },
  {
    "MOLECULE": "c1ccc2c(c1)C1CC3(CN(CCC4CCCCC4)CC23)c2ccccc21 (centres unmarked)",
    "ASSAY_VALUE": "> 324 mg/kg"
  },
  {
    "MOLECULE": "c1csc(CN2C[C@@H]3c4ccccc4[C@@H]4C[C@@]3(C2)c2ccccc24)c1 (relative stereo)",
    "ASSAY_VALUE": "> 324 mg/kg"
  },
  {
    "MOLECULE": "C1=CC(CCN2CC3c4ccccc4C4CC3(C2)c2ccccc24)CC1 (centres unmarked)",
    "ASSAY_VALUE": "> 324 mg/kg"
  }
]

Item CN1CC2c3ccccc3C3CC2(C1)c1ccccc13 (centres unmarked) has what recorded LD50 at 24 h? 150 mg/kg

Any idea what its LD50 at 24 h is? The molecule is c1ccc(CCN2C[C@@H]3c4ccccc4[C@@H]4C[C@@]3(C2)c2ccccc24)cc1 (relative stereo) > 324 mg/kg

For the molecule shown here, Clc1ccc2c(c1)[C@]13C[C@H]2c2ccccc2[C@H]1CN(CC1CCCC1)C3 (relative stereo) [Example 76, Hydrochloride] , give the reported LD50 at 24 h. 300 mg/kg

* * *

# System: female white mice
# EXPERIMENTAL_PROTOCOL: animal or person
# CONDITIONS_USED: Mus musculus, po, read-out: Reflexes Lift ED50, Table III; oral, mice
Where a name gives a salt, the structure may show the parent alone.
ED50 for assorted compounds
Form entry: value (mg/kg) — number only.

[
  {
    "COMPOUND": "CN1CC2c3cc(Cl)ccc3C3CC2(C1)c1ccccc13.Cl (stereo not drawn)",
    "TARGET_DESC": "female white mice",
    "ED50 / mg/kg": 20
  },
  {
    "COMPOUND": "O=Cc1ccc2c(c1)[C@]13C[C@H]2c2ccccc2[C@H]1CN(CC1CCCC1)C3 (relative stereo) [Example 69, Hydrochloride]",
    "TARGET_DESC": "female white mice",
    "ED50 / mg/kg": 60
  }
]

Pending compound:
I would be grateful if you could share the reported ED50 for Clc1ccc2c(c1)[C@]13C[C@H]2c2ccccc2[C@H]1CN(CC1CCCC1)C3 (relative stereo) [Example 76, Hydrochloride] . 20

* * *

Reported ED50 is given for each of the following molecules.
# System: female white mice
# EXPERIMENTAL_PROTOCOL: animal or person
# CONDITIONS_USED: Mus musculus, po, read-out: Reflexes Lift ED50, Table III; oral, mice
# Experimental: Groups of five Carworth CF1 S female mice, 16-20 g each, were fasted 16-22 hours before use. […] ED50 values were calculated for each parameter including death (LD50). […] The observer gently strokes the abdominal musculature of the mouse with thumb and forefinger. Flaccidity (or rarely, tenseness) is recorded. […]
Counter-ions that a name gives are not always drawn.
Respond with the bare value in mg/kg.

[
  {
    "MOLECULE": "CNC(=O)ON=Cc1ccc2c(c1)[C@]13C[C@H]2c2ccccc2[C@H]1CN(CC1CCCC1)C3 (relative stereo) [Example 84, Hydrochloride]",
    "ED50 [mg/kg]": 200
  }
]

Give the measured ED50 of FCc1ccc2c(c1)[C@]13C[C@H]2c2ccccc2[C@H]1CN(CC1CCCC1)C3 (relative stereo) [Example 87, Hydrochloride] . 36

Endpoint output: ED50 of Cl.Clc1ccc2c(c1)C1CN(CC3CCCCC3)CC13CC2c1ccccc13 (stereo not drawn) . Value? 36

Form field: reported ED50 of CC(=NO)c1ccc2c(c1)[C@]13C[C@H]2c2ccccc2[C@H]1CN(CC1CCCC1)C3 (relative stereo) [Example 71, Hydrochloride] 60

I am curious: what ED50 value has been reported for C=CCC(O)c1ccc2c(c1)[C@]13C[C@H]2c2ccccc2[C@H]1CN(CC1CCCC1)C3 (stereo partly drawn) [Example 75, Hydrochloride] ? 20

Please give the measured ED50 for this molecule: O=C(O)c1ccc2c(c1)[C@]13C[C@H]2c2ccccc2[C@H]1CN(CC1CCCC1)C3 (relative stereo) [Example 73, Hydrochloride] 100
